tested on: ulcer induced by a stress of restraint plus water-immersion; experiment: Test of ulcer induced by a stress of restraint plus water-immersion; assay type: in vivo, ddY male mouse; conditions: 7 h; mouse, 30 mg/kg oral, 15 minutes before the load of the stress; hydrochloride salts; read-out: Percentage of inhibition of ulcer formation
Class y: inhibition in vivo at 30 mg/kg at least 80%. Class n: inhibition in vivo at 30 mg/kg below 80%.

-- ask hey, is inhibition in vivo at 30 mg/kg for this one >= 80%? COc1ccccc1C(=O)NCCSCC(=O)NC/C=C\COc1cc(CN2CCCCC2)ccn1 [Example 91]
-- reply y

-- ask hey, is inhibition in vivo at 30 mg/kg for this one >= 80%? COC(=O)NCCSCC(=O)NCCCOc1cccc(CN2CCCCC2)c1 [Example 12]
-- reply n

-- ask hey, is inhibition in vivo at 30 mg/kg for this one >= 80%? COc1ccc(CN2CCCCC2)cc1OC/C=C\CNC(=O)CSCCNC(=O)c1ccoc1 [Example 4]
-- reply n

-- ask hey, is inhibition in vivo at 30 mg/kg for this one >= 80%? O=C(CSCCNC(=O)c1ccccc1F)NCCCOc1cccc(CN2CCCCC2)c1 [Example 44]
-- reply n

-- ask hey, is inhibition in vivo at 30 mg/kg for this one >= 80%? O=C(C[S+]([O-])Cc1ccco1)NC/C=C\COc1cc(CN2CCCCC2)ccn1 (centres unmarked) [FRG-8813, reference compound]
-- reply y

-- ask hey, is inhibition in vivo at 30 mg/kg for this one >= 80%? CCOC(=O)NCCSCC(=O)NCCCOc1cccc(CN2CCCCC2)c1 [Example 13]
-- reply y

Next:
-- ask hey, is inhibition in vivo at 30 mg/kg for this one >= 80%? CCOC(=O)NCCSCC(=O)NC/C=C\COc1cccc(CN2CCCCC2)c1 [Example 14]
-- reply y

-- ask hey, is inhibition in vivo at 30 mg/kg for this one >= 80%? COC(=O)NCC[S+]([O-])CC(=O)NC/C=C\COc1cccc(CN2CCCCC2)c1 (centres unmarked) [Example 79]
-- reply n

---

tested on: ulcer induced by a stress of restraint plus water-immersion; assay: Test of ulcer induced by a stress of restraint plus water-immersion; assay type: in vivo, ddY male mouse; conditions: 7 h; mouse, 30 mg/kg oral, 15 minutes before the load of the stress; hydrochloride salts; read-out: Percentage of inhibition of ulcer formation
property measured: inhibition in vivo at 30 mg/kg

The following compounds have reported results that may help.
-- ask What measured inhibition in vivo at 30 mg/kg goes with `O=C(CSCCNC(=O)c1ccoc1)NC/C=C\COc1cccc(CN2CCCCC2)c1` ?
-- reply 73%

-- ask What measured inhibition in vivo at 30 mg/kg goes with `CCCCNC(=S)NCCSCC(=O)NC/C=C\COc1cc(CN2CCCCC2)ccn1` ?
-- reply 71%

-- ask What measured inhibition in vivo at 30 mg/kg goes with `COC(=O)NCCSCC(=O)NC/C=C\COc1cccc(CN2CCCCC2)c1` ?
-- reply 98%

Next:
-- ask What measured inhibition in vivo at 30 mg/kg goes with `COc1ccccc1C(=O)NCCSCC(=O)NC/C=C\COc1cccc(CN2CCCCC2)c1` ?
-- reply 69%

-- ask What measured inhibition in vivo at 30 mg/kg goes with `O=C(CSCCNC(=O)c1ccco1)NCCCOc1cccc(CN2CCCCC2)c1` ?
-- reply 93%

-- ask What measured inhibition in vivo at 30 mg/kg goes with `CCC(=NC#N)NCCSCC(=O)NC/C=C\COc1cccc(CN2CCCCC2)c1` ?
-- reply 70%

-- ask What measured inhibition in vivo at 30 mg/kg goes with COC(=O)NCC[S+]([O-])CC(=O)NCCCOc1cccc(CN2CCCCC2)c1 (stereo not shown) ?
-- reply 100%
